# maps each entry to its %Inh
System: HASPIN;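 note: KINOMEscan kinase panel screen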
Construct: gene GSG2
condition: concentration: 1 μM, replicates: in singlicate; n = 1
The reply should be a number in %, with the unit left off.

COc1cccc(C2=C(Nc3ccc(Cl)c(C(=O)O)c3)C(=O)NC2=O)c1: 0
Cc1ccc(C(=O)N2CC[C@@H](O)C2)cc1-n1c(C)cc(OCc2ccc(F)cc2F)c(Br)c1=O: 0
Cc1ccc(C)c(NC(=O)NC2CCN(c3ccnc(Nc4ccc(F)cc4)n3)C2)c1 (stereo not shown): 44

# input Given `CC(C)c1nc(-c2cccc(NS(=O)(=O)c3c(F)cccc3F)c2F)c(-c2ccnc(Nc3ccc(N4CCOCC4)nc3)n2)s1` , respond with its %Inh.
# output 0
